B1: Cytochrome c-551, P00099 (parent)
chain: MKPYALLSLLATGTLLAQGAWAEDPEVLFKNKGCVACHAIDTKMVGPAYKDVAAKFAGQAGAEAELAQRIKNGSQGVWGPIPMPPNAVSDDEAQTLAKWVLSQK

# Variants of: B1
# applied.conditions: Pseudomonas aeruginosa (strain ATCC 15692 / DSM 22644 / CIP 104116 / JCM 14847 / LMG 12228 / 1C / PRS 101 / PAO1); pH 5; 25 °C; GdnHCl; CD; Sodium acetate 20 mM; structure 451C; whole UniProt chain shown
Some variants, each annotated with its measured denaturant m value.
Record the value in kcal/mol/M, omitting the unit from your answer.

Query string: What denaturant m value value was documented for this variant, F29A V35M F56Y E65Y ?
Result string: 2.43

Query string: What denaturant m value value was documented for this variant, `F56Y` ?
Result string: 2.67

Query string: What denaturant m value value was documented for this variant, F56Y E65Y V100I ?
Result string: 2.44

Query string: What denaturant m value value was documented for this variant, `V100I` ?
Result string: 2.74

Query string: What denaturant m value value was documented for this variant, F29A V35M ?
Result string: 2.57

Query string: What denaturant m value value was documented for this variant, F29A V35M V100I ?
Result string: 2.47

Query string: What denaturant m value value was documented for this variant, `E65Y` ?
Result string: 3.1

Query string: What denaturant m value value was documented for this variant, F56Y E65Y ?
Result string: 2.68

Query string: What denaturant m value value was documented for this variant, F29A V35M F56Y E65Y V100I ?
Result string: 2.44
